Just for reference, patent US20180105548A1 is where these values come from.

TEST_METHOD_NOTES: Cytotoxicity test (CCK-8) in RAW264.7 cell
Assay type: cell-based, mouse
TEST_CONTEXT: mouse, RAW264.7 macrophage cells; 80 μM, 24 hours, vs negative control 0.2% DMSO; read-out: RAW264.7 cell viability (%, mean ± variation)

MOLECULE | viability at 24 h, 80 µM (%)
CO[C@@H]1C[C@H]2[C@H](OC(=O)c3ccc(O)cc3)[C@@H]3O[C@]3(CO)[C@H]2[C@H](O[C@@H]2O[C@H](CO)[C@@H](O)C(O)[C@H]2O)O1 (stereo partly shown) [KS-513] | 95.1

====

TEST_METHOD_NOTES: Acute toxicity test of oral administration in rat
TEST_CONTEXT: Sprague-Dawley, in vivo

MOLECULE | LD50 at 14 days
CO[C@@H]1C[C@H]2[C@H](OC(=O)c3ccc(O)cc3)[C@@H]3O[C@]3(CO)[C@H]2[C@H](O[C@@H]2O[C@H](CO)[C@@H](O)C(O)[C@H]2O)O1 (stereo partly shown) | > 5000 mg/kg

====

TEST_METHOD_NOTES: Cytotoxicity test (CCK-8) in RAW264.7 cell
Assay type: cell-based, mouse
TEST_CONTEXT: mouse, RAW264.7 macrophage cells; 10 μM, 24 hours, vs negative control 0.2% DMSO; read-out: RAW264.7 cell viability (%, mean ± variation)
EXPERIMENTAL_READOUT: viability at 24 h, 10 µM (%)

MOLECULE | MEASUREMENT_UNIT | MEAS_VALUE
CO[C@@H]1C[C@H]2[C@H](OC(=O)c3ccc(O)cc3)[C@@H]3O[C@]3(CO)[C@H]2[C@H](O[C@@H]2O[C@H](CO)[C@@H](O)C(O)[C@H]2O)O1 (stereo partly shown) | % | 98.2

====

TEST_METHOD_NOTES: Cytotoxicity test (CCK-8) in RAW264.7 cell
Type: cell-based, mouse
TEST_CONTEXT: mouse, RAW264.7 macrophage cells; 20 μM, 24 hours, vs negative control 0.2% DMSO; read-out: RAW264.7 cell viability (%, mean ± variation)

COMPOUND | viability at 24 h, 20 µM
CO[C@@H]1C[C@H]2[C@H](OC(=O)c3ccc(O)cc3)[C@@H]3O[C@]3(CO)[C@H]2[C@H](O[C@@H]2O[C@H](CO)[C@@H](O)C(O)[C@H]2O)O1 (stereo partly shown) [KS-513] | 94.7%
